Each entry below carries its reported pKd.
# targetEntity: T1, human beta CGRP (SEQ ID NO: 81) (human, not fully specified)
# T1 construct: also called human βCGRP; hβCGRP
# T1 peptide: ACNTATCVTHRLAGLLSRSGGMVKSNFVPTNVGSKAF
# protocolSummary: SPR as in Example 5
The read-out pKd is expressed as -log10 of concentration in moles per litre.

Reference set (2 entries):
# binder, pKd
records = [
    ("lipocalin mutein SEQ ID NO: 27 (designed binder, biotinylated by NHS chemistry for capture in SPR) QDSTSDLIPAPPLSKVPLQQNFQDNQFHGKWYVVGWAGNTLLREDKDPIKMQAMIYELKEDKSYNVTWVYFADKKCNYHIETFVPGSQPGEFTLGTIKSYPGETPILVRVVSTNYNQHAMVFFKGVNQNREIFEIVLYGRTKELTNELKENFIRFSKSLGLPENHIVFPVPIDQCIDGSAWSHPQFEK", 11.15),
    ("cysteine-free lipocalin mutein SEQ ID NO: 31 (designed binder, biotinylated by NHS chemistry for capture in SPR) QDSTSDLIPAPPLSKVPLQQNFQDNQFQGKWYVVGWAGNTLLREDKDPIKMQAMIYELKEDKSYNVTWVYFADKKRNYHIETFVPGSQPGEFTLGTIKSYPGETPILVRVVSTNYNQHAMVFFKGVNQNREIFEIVLYGRTKELTNELKENFIRFSKSLGLPENHIVFPVPIDQFIDGSAWSHPQFEK", 10.37),
]

Moving on to another binder below.
Input line: Entry cysteine-free lipocalin mutein SEQ ID NO: 40 (designed binder, biotinylated by NHS chemistry for capture in SPR) QDSTSDLIPAPPLSKVPLQQNFQDNQFQGKWYVVGWAGNTLLREDKDPIKMQAMIYELKEDKSYNVTWVYFADKKFNYHIETFVPGSQPGEFTLGTIKSYPGETPILVRVVSTNYNQHAMVFFKGVNQNREIFEIVLYGRTKELTNELKENFIRFSKSLGLPENHIVFPVPIDQDIDGSAWSHPQFEK has what pKd?
Output line: 10.64
